I'd be grateful if you could share measured pIC50 for these entries.
Tested on: CCRF-CEM leukemia cells
Measurement description: CCRF-CEM ASNase cell proliferation assay, phenotypic assay for cellular inhibition of GCN2
Type: cell-based
Measurement context: Homo sapiens; ASNase treated CCRF-CEM cells, 1 mU/mL ASNase, 72 h
pIC50: −log10 of the molar value.

{"Molecule smiles": "CNc1ncc2cc(-c3cccc(NS(=O)(=O)c4cc(Cl)cnc4OC)c3F)c(NC)nc2n1", "pIC50": "≥ 7.00"}

Count: 2. Required value per item: pIC50.
1. CNc1ncc2cc(-c3cccc(NS(=O)(=O)c4cc(Cl)cnc4NC)c3F)ccc2n1
2. CNc1ncc2cc(-c3cccc(NS(=O)(=O)c4cc(Cl)cnc4NC)c3F)c(C)nc2n1

A)
1: ≥ 7.00; 2: ≥ 7.00

---

Each entry below carries its measured IC50, system: GCN2 kinase (Homo sapiens (Human), UniProt Q9P2K8).
Sequence (Q9P2K8 whole entry): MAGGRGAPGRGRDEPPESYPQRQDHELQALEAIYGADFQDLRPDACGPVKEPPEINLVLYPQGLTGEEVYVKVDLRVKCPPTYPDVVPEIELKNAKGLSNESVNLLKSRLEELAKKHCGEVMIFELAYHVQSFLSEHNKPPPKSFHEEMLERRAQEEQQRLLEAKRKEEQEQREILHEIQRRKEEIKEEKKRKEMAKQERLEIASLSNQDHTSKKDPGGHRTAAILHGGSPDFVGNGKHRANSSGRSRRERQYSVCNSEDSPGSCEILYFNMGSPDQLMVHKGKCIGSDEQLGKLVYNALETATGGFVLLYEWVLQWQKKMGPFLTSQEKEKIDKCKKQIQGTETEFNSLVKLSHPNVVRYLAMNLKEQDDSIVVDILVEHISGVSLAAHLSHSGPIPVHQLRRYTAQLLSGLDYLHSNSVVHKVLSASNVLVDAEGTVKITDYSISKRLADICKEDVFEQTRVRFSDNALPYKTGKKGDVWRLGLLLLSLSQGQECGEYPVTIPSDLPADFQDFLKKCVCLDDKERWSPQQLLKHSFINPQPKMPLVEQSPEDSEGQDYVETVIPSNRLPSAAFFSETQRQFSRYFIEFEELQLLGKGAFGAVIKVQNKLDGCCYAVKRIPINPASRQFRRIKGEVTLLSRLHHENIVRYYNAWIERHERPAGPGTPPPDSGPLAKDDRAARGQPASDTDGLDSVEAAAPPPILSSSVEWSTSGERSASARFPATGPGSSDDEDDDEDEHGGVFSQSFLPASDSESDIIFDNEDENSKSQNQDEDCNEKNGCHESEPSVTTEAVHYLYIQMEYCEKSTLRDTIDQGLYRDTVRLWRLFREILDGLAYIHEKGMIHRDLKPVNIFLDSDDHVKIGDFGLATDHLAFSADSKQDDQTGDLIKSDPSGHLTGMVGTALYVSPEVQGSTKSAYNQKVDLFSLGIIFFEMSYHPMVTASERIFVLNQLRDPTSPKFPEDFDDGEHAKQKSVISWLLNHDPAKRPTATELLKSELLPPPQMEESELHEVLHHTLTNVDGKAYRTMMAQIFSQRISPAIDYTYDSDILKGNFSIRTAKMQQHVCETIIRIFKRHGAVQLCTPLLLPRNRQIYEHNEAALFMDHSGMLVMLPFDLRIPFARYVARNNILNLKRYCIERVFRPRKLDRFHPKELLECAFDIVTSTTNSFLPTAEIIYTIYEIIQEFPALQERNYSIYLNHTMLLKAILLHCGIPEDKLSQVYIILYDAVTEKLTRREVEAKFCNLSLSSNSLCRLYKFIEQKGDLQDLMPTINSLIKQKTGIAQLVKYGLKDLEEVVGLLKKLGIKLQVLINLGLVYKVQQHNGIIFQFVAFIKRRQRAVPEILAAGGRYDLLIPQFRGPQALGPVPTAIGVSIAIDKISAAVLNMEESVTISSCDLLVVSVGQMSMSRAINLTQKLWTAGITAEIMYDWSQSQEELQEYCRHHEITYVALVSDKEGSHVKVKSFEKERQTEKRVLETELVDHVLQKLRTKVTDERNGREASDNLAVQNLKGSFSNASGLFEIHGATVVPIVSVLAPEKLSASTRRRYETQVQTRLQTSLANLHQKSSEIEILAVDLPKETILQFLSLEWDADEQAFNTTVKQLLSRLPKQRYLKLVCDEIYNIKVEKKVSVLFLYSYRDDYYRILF

{"Molecule smiles": "CNc1nc2nc(N)ncc2cc1-c1cc(F)cc(NS(=O)(=O)c2cc(Cl)cnc2OC)c1", "System tested": "GCN2 kinase (Homo sapiens (Human), UniProt Q9P2K8)", "IC50": "≤ 100 nM"}
{"Molecule smiles": "CNc1cc2nc(C)c(-c3ccc(F)c(NS(=O)(=O)c4cc(Cl)cc(CO)c4Cl)c3)cc2cn1", "System tested": "GCN2 kinase (Homo sapiens (Human), UniProt Q9P2K8)", "IC50": "≤ 100 nM"}
{"Molecule smiles": "CNc1ncc2cc(-c3ccnc(NS(=O)(=O)c4cc(Cl)cnc4OC)c3F)c(OC)nc2n1", "System tested": "GCN2 kinase (Homo sapiens (Human), UniProt Q9P2K8)", "IC50": "≤ 100 nM"}

In the following, a different molecule is considered.
Record CNc1ncc2cc(-c3cc(NS(=O)(=O)c4cc(Cl)cnc4OC)c(F)cc3C)c(C)nc2n1 . Reported IC50: 500 to 1000 nM

---

Quick note: these are IC50 numbers for system: PERK kinase (Homo sapiens (Human))
Sequence (Q9NZJ5 other isoform, or with tags, fused parts or gaps): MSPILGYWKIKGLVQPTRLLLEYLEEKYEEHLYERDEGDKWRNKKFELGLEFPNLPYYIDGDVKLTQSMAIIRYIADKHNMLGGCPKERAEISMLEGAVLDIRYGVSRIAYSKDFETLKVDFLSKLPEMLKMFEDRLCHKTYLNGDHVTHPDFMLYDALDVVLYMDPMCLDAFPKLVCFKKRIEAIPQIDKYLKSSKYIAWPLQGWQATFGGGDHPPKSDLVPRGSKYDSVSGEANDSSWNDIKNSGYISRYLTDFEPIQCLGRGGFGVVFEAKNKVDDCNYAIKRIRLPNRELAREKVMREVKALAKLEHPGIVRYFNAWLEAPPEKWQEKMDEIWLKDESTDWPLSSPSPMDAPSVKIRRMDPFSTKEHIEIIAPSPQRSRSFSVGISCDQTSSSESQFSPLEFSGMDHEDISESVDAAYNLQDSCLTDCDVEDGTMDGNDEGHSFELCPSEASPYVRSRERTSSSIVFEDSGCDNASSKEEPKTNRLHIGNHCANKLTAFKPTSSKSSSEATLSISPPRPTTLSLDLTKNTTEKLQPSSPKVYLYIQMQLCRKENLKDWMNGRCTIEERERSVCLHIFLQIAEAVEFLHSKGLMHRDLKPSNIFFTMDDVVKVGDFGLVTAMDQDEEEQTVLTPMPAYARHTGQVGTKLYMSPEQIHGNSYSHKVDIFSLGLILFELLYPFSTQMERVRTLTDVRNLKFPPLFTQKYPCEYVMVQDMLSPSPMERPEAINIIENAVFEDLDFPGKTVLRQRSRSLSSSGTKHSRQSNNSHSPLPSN

Previously resolved entries follow.
{"Molecule smiles": "CNc1ncc2cc(-c3cccc(NS(=O)(=O)c4cc(Cl)cc(OC)c4Cl)c3F)ccc2n1", "Reading": "≤ 100 nM"}
{"Molecule smiles": "COc1ncc(Cl)cc1S(=O)(=O)Nc1cccc(-c2cc3cnc(NC(C)=O)cc3nc2C)c1F", "Reading": "≤ 100 nM"}

Return reported IC50 values for all items listed beneath this line.
1. CNc1cc2nc(C)c(-c3cc(NS(=O)(=O)c4cc(Cl)cc(CO)c4Cl)c(F)cc3F)cc2cn1
2. CNc1ncc2cc(-c3c(F)ccc(NS(=O)(=O)c4cc(Cl)cnc4OC)c3F)c(NC)nc2n1
3. CNc1ncc2cc(-c3cccc(NS(=O)(=O)c4cc(Cl)cnc4OC)c3C(F)(F)F)ccc2n1
4. CNc1cc2nc(N)c(-c3cccc(NS(=O)(=O)c4cc(Cl)cnc4OC)c3F)cc2cn1

A)
1. ≤ 100 nM
2. 100 to 500 nM
3. 100 to 500 nM
4. ≤ 100 nM

---

Tested on: CCRF-CEM leukemia cells
Measurement description: CCRF-CEM ASNase cell proliferation assay, phenotypic assay for cellular inhibition of GCN2
Type: cell-based
Measurement context: Homo sapiens; ASNase treated CCRF-CEM cells, 1 mU/mL ASNase, 72 h
Measurement name: IC50

{"Molecule smiles": "CNc1ncc2cc(-c3cccc(NS(=O)(=O)c4cc(Cl)cnc4OC)c3)c(NC)nc2n1", "Measurement name": "IC50", "Reading": "100 to 500 nM"}
{"Molecule smiles": "COc1nc2nc(N)ncc2cc1-c1cccc(NS(=O)(=O)c2cc(Cl)cnc2OC)c1F", "Measurement name": "IC50", "Reading": "≤ 100 nM"}
{"Molecule smiles": "CNc1ncc2cc(-c3cccc(NS(=O)(=O)c4cc(Cl)cnc4OC)c3F)c(OC)nc2n1", "Measurement name": "IC50", "Reading": "≤ 100 nM"}
{"Molecule smiles": "CNc1ncc2cc(-c3ccnc(NS(=O)(=O)c4cc(Cl)cnc4OC)c3F)c(OC)nc2n1", "Measurement name": "IC50", "Reading": "100 to 500 nM"}
{"Molecule smiles": "CNc1nc2nc(N)ncc2cc1-c1cccc(NS(=O)(=O)c2cc(Cl)cnc2OC)c1F", "Measurement name": "IC50", "Reading": "≤ 100 nM"}
{"Molecule smiles": "CNc1ncc2cc(-c3cccc(NS(=O)(=O)c4cc(Cl)cnc4OC)c3Cl)c(C)nc2n1", "Measurement name": "IC50", "Reading": "≤ 100 nM"}
{"Molecule smiles": "CNc1ncc2cc(-c3cccc(NS(=O)(=O)c4cc(Cl)cc(C(C)(C)O)c4Cl)c3F)c(NC)nc2n1", "Measurement name": "IC50", "Reading": "≤ 100 nM"}
{"Molecule smiles": "COc1cc2nc(N)ncc2cc1-c1cccc(NS(=O)(=O)c2cc(Cl)cc(CO)c2Cl)c1F", "Measurement name": "IC50", "Reading": "≤ 100 nM"}
{"Molecule smiles": "COc1ncc(Cl)cc1S(=O)(=O)Nc1cccc(-c2cc3cnc(N)cc3nc2C)c1Cl", "Measurement name": "IC50", "Reading": "≤ 100 nM"}
{"Molecule smiles": "CNc1ncc2cc(-c3cccc(NS(=O)(=O)c4cc(Cl)cnc4OC)c3Cl)ccc2n1", "Measurement name": "IC50", "Reading": "≤ 100 nM"}

// each listed compound needs a value for IC50
1. COc1ncc(Cl)cc1S(=O)(=O)Nc1cccc(-c2ccc3nc(N)ncc3c2)c1F
2. CNc1ncc2cc(-c3cc(NS(=O)(=O)c4cc(Cl)cnc4OC)ccc3C)c(C)nc2n1
3. COc1ncc(Cl)cc1S(=O)(=O)Nc1cccc(-c2cc3cnc(Nc4cnn(C)c4)nc3nc2C)c1F
4. COc1nc2nc(N)ncc2cc1-c1cc(F)cc(NS(=O)(=O)c2cc(Cl)cnc2OC)c1
5. CNc1cc2nc(NC)c(-c3cccc(NS(=O)(=O)c4cc(Cl)cnc4OC)c3F)cc2cn1
6. CNc1ncc2cc(-c3cccc(NS(=O)(=O)c4cc(Cl)cnc4OC)c3C#N)c(C)nc2n1

A)
1: 100 to 500 nM; 2: ≤ 100 nM; 3: ≤ 100 nM; 4: 100 to 500 nM; 5: ≤ 100 nM; 6: 100 to 500 nM
